System: 653999-131-R-J2-PDC complex spheroid viability
measurementNotes: Anticancer human tumor 653999-131-R-J2-PDC patient-derived lung adenocarcinoma cell line growth inhibition
runConditions: second compound 3.16 µM; first compound 0.316 µM; hits give low values
experimentalEndpoint: viability, T/C (%)
Numbers only, in %.

# count of solved cases: 3
1) O=C(C=Cn1cnc(-c2cc(C(F)(F)F)cc(C(F)(F)F)c2)n1)NNc1cnccn1 + NC1CC1c1ccc(-c2cccc(O)c2)cc1 | 30
2) CC(C)c1c(-c2ccccc2)nc2c(C#N)c[nH]n2c1=O + NC1CCC(NC2CC2c2ccccc2)CC1 | 84.6
3) COc1cc(Nc2ncc3c(n2)-c2ccc(Cl)cc2C(c2c(F)cccc2OC)=NC3)ccc1C(=O)O + NC1CC1c1ccc(-c2cccc(O)c2)cc1 | 51.7

Req: Quick one: viability, T/C for O=C(c1cc(Cc2n[nH]c(=O)c3ccccc23)ccc1F)N1CCN(C(=O)C2CC2)CC1 + NC1CC1c1ccc(-c2cccc(O)c2)cc1 ?
Resp: 87

---

Test system: 653999-131-R-J2-PDC complex spheroid viability
measurementNotes: Anticancer human tumor 653999-131-R-J2-PDC cell line growth inhibition;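 further: spheroids exposed to agents for seven days before readout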
runConditions: second compound 0.1 µM; first compound 0.00949 µM; hits give low values
Exercise: state measured viability, T/C for each of the compounds provided.
One number for each entry, in %.

# count of solved cases: 2
1) Nc1ccn(C2OC(CO)C(O)C2(F)F)c(=O)n1 (stereo not given) + NC1CCC(NC2CC2c2ccccc2)CC1 | 46.7
2) O=C(C=Cc1cccc(S(=O)(=O)Nc2ccccc2)c1)NO + NC1CCC(NC2CC2c2ccccc2)CC1 | 81.9

Go through the list and state viability, T/C for each entry.
1. CCN(c1cc(-c2ccc(CN3CCOCC3)cc2)cc(C(=O)NCc2c(C)cc(C)[nH]c2=O)c1C)C1CCOCC1 + NC1CC1c1ccc(-c2cccc(O)c2)cc1
2. NS(=O)(=O)OCC1CC(n2ccc3c(NC4CCc5ccccc54)ncnc32)CC1O (stereo not given) + NC1CCC(NC2CC2c2ccccc2)CC1
3. Nc1ncn(C2CC(O)C(CO)S2)c(=O)n1 (stereo not given) + NC1CCC(NC2CC2c2ccccc2)CC1

Resp:
92.9
97.5
90.8

---

System: 653999-131-R-J2-PDC complex spheroid viability
measurementNotes: Anticancer human tumor 653999-131-R-J2-PDC cell line growth inhibition;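 further: spheroids exposed to agents for seven days before readout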
runConditions: second compound 0.1 µM; first compound 3.16 µM; hits give low values
experimentalEndpoint: viability, T/C (%)
One number for each entry, in %.

# count of solved cases: 2
1. COc1ccc([C@@H](O)c2cc(-c3ncnc4cc(N5CCOCC5)ccc34)c(F)cc2Cl)nn1 + NC1CCC(NC2CC2c2ccccc2)CC1 | 42
2. O=C(c1cc(Cc2n[nH]c(=O)c3ccccc23)ccc1F)N1CCN(C(=O)C2CC2)CC1 + NC1CCC(NC2CC2c2ccccc2)CC1 | 81.6

Req: Quick one: viability, T/C for CC1(C)CCC(CN2CCN(c3ccc(C(=O)NS(=O)(=O)c4ccc(NCC5CCOCC5)c([N+](=O)[O-])c4)c(Oc4cnc5[nH]ccc5c4)c3)CC2)=C(c2ccc(Cl)cc2)C1 + NC1CC1c1ccc(-c2cccc(O)c2)cc1 ?
Resp: 81.5

---

Test system: 653999-131-R-J2-PDC complex spheroid viability
measurementNotes: Anticancer human tumor 653999-131-R-J2-PDC cell line growth inhibition;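 further: spheroids exposed to agents for seven days before readout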
runConditions: second compound 10 µM; first compound 0.316 µM; hits give low values
Exercise: state measured viability, T/C for each of the molecules provided.

# count of solved cases: 2
1) O=C(c1cc(Cc2n[nH]c(=O)c3ccccc23)ccc1F)N1CCN(C(=O)C2CC2)CC1 + NC1CC1c1ccc(-c2cccc(O)c2)cc1 | 87.9%
2) O=C(C=Cn1cnc(-c2cc(C(F)(F)F)cc(C(F)(F)F)c2)n1)NNc1cnccn1 + NC1CCC(NC2CC2c2ccccc2)CC1 | 32.5%

Go through the list and state viability, T/C for each entry.
1. O=C(C=Cn1cnc(-c2cc(C(F)(F)F)cc(C(F)(F)F)c2)n1)NNc1cnccn1 + NC1CC1c1ccc(-c2cccc(O)c2)cc1
2. CC1(C)CCC(CN2CCN(c3ccc(C(=O)NS(=O)(=O)c4ccc(NCC5CCOCC5)c([N+](=O)[O-])c4)c(Oc4cnc5[nH]ccc5c4)c3)CC2)=C(c2ccc(Cl)cc2)C1 + NC1CCC(NC2CC2c2ccccc2)CC1

Resp:
["33.7%", "87.4%"]

---

Exercise: state measured viability, T/C for each of the molecules provided.
Tested on: 653999-131-R-J2-PDC complex spheroid viability
measurementNotes: Anticancer human tumor 653999-131-R-J2-PDC cell line growth inhibition;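 further: spheroids exposed to agents for seven days before readout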
runConditions: second compound 10 µM; first compound 3.16 µM; hits give low values
One number for each entry, in %.

1) COc1ccc([C@@H](O)c2cc(-c3ncnc4cc(N5CCOCC5)ccc34)c(F)cc2Cl)nn1 + NC1CC1c1ccc(-c2cccc(O)c2)cc1 | 33
2) CC1(C)CCC(CN2CCN(c3ccc(C(=O)NS(=O)(=O)c4ccc(NCC5CCOCC5)c([N+](=O)[O-])c4)c(Oc4cnc5[nH]ccc5c4)c3)CC2)=C(c2ccc(Cl)cc2)C1 + NC1CCC(NC2CC2c2ccccc2)CC1 | 78.1
3) COc1ccc([C@@H](O)c2cc(-c3ncnc4cc(N5CCOCC5)ccc34)c(F)cc2Cl)nn1 + NC1CCC(NC2CC2c2ccccc2)CC1 | 44.6

Go through the list and state viability, T/C for each entry.
1. CC1COCCN1c1cc(C2(S(C)(=N)=O)CC2)nc(-c2ccnc3[nH]ccc23)n1 (stereo unspecified) + NC1CCC(NC2CC2c2ccccc2)CC1
2. CC(C)c1c(-c2ccccc2)nc2c(C#N)c[nH]n2c1=O + NC1CCC(NC2CC2c2ccccc2)CC1
3. O=C(c1cc(Cc2n[nH]c(=O)c3ccccc23)ccc1F)N1CCN(C(=O)C2CC2)CC1 + NC1CCC(NC2CC2c2ccccc2)CC1

Resp:
1: 30; 2: 75.5; 3: 76.4

---

System: 653999-131-R-J2-PDC complex spheroid viability
measurementNotes: Anticancer human tumor 653999-131-R-J2-PDC cell line growth inhibition;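 further: spheroids exposed to agents for seven days before readout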
runConditions: second compound 0.1 µM; first compound 0.00949 µM; hits give low values
Exercise: state measured viability, T/C for each of the molecules provided.
Numbers only, in %.

# count of solved cases: 5
1) Nc1ncn(C2CC(O)C(CO)S2)c(=O)n1 (configuration not stated) + NC1CC1c1ccc(-c2cccc(O)c2)cc1 | 104
2) O=C(C=Cc1cccc(S(=O)(=O)Nc2ccccc2)c1)NO + NC1CC1c1ccc(-c2cccc(O)c2)cc1 | 99.8
3) Nc1ccccc1NC(=O)c1ccc(CNC(=O)OCc2cccnc2)cc1 + NC1CC1c1ccc(-c2cccc(O)c2)cc1 | 89
4) CCN(c1cc(-c2ccc(CN3CCOCC3)cc2)cc(C(=O)NCc2c(C)cc(C)[nH]c2=O)c1C)C1CCOCC1 + NC1CCC(NC2CC2c2ccccc2)CC1 | 97.1
5) NS(=O)(=O)OCC1CC(n2ccc3c(NC4CCc5ccccc54)ncnc32)CC1O (configuration not stated) + NC1CC1c1ccc(-c2cccc(O)c2)cc1 | 94.2

Go through the list and state viability, T/C for each entry.
1. CCc1c2c(nc3ccc(O)cc13)-c1cc3c(c(=O)n1C2)COC(=O)[C@]3(O)CC + NC1CC1c1ccc(-c2cccc(O)c2)cc1
2. Nc1ccn(C2OC(CO)C(O)C2(F)F)c(=O)n1 (configuration not stated) + NC1CC1c1ccc(-c2cccc(O)c2)cc1

Resp:
1. 11.7
2. 67.2

---

Exercise: state measured viability, T/C for each of the compounds provided.
System: 653999-131-R-J2-PDC complex spheroid viability
measurementNotes: Anticancer human tumor 653999-131-R-J2-PDC cell line growth inhibition;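 further: spheroids exposed to agents for seven days before readout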
runConditions: second compound 1 µM; first compound 0.03 µM; hits give low values
One number for each entry, in %.

# count of solved cases: 3
1) COc1cc(C2c3cc4c(cc3C(OC3OC5COC(C)OC5C(O)C3O)C3COC(=O)C23)OCO4)cc(OC)c1O (stereo unspecified) + NC1CC1c1ccc(-c2cccc(O)c2)cc1 | 64
2) NS(=O)(=O)OCC1CC(n2ccc3c(NC4CCc5ccccc54)ncnc32)CC1O (stereo unspecified) + NC1CCC(NC2CC2c2ccccc2)CC1 | 92.8
3) NS(=O)(=O)OCC1CC(n2ccc3c(NC4CCc5ccccc54)ncnc32)CC1O (stereo unspecified) + NC1CC1c1ccc(-c2cccc(O)c2)cc1 | 96.4

Go through the list and state viability, T/C for each entry.
1. Nc1ccn(C2OC(CO)C(O)C2(F)F)c(=O)n1 (stereo unspecified) + NC1CCC(NC2CC2c2ccccc2)CC1
2. COc1cc(C2c3cc4c(cc3C(OC3OC5COC(C)OC5C(O)C3O)C3COC(=O)C23)OCO4)cc(OC)c1O (stereo unspecified) + NC1CCC(NC2CC2c2ccccc2)CC1
3. Nc1ccn(C2OC(CO)C(O)C2(F)F)c(=O)n1 (stereo unspecified) + NC1CC1c1ccc(-c2cccc(O)c2)cc1
4. Nc1ccccc1NC(=O)c1ccc(CNC(=O)OCc2cccnc2)cc1 + NC1CC1c1ccc(-c2cccc(O)c2)cc1
5. O=C(C=Cc1cccc(S(=O)(=O)Nc2ccccc2)c1)NO + NC1CC1c1ccc(-c2cccc(O)c2)cc1
6. CCN(c1cc(-c2ccc(CN3CCOCC3)cc2)cc(C(=O)NCc2c(C)cc(C)[nH]c2=O)c1C)C1CCOCC1 + NC1CCC(NC2CC2c2ccccc2)CC1
7. O=C(C=Cc1cccc(S(=O)(=O)Nc2ccccc2)c1)NO + NC1CCC(NC2CC2c2ccccc2)CC1
8. CCN(c1cc(-c2ccc(CN3CCOCC3)cc2)cc(C(=O)NCc2c(C)cc(C)[nH]c2=O)c1C)C1CCOCC1 + NC1CC1c1ccc(-c2cccc(O)c2)cc1

Resp:
1: 36.6; 2: 52.6; 3: 48.6; 4: 68.5; 5: 94.4; 6: 101; 7: 100; 8: 97.5
